Target: SMARCA2 (Homo sapiens, UniProt P51531)
Construct: endogenous in cells
Sequence (P51531 whole entry, species assumed): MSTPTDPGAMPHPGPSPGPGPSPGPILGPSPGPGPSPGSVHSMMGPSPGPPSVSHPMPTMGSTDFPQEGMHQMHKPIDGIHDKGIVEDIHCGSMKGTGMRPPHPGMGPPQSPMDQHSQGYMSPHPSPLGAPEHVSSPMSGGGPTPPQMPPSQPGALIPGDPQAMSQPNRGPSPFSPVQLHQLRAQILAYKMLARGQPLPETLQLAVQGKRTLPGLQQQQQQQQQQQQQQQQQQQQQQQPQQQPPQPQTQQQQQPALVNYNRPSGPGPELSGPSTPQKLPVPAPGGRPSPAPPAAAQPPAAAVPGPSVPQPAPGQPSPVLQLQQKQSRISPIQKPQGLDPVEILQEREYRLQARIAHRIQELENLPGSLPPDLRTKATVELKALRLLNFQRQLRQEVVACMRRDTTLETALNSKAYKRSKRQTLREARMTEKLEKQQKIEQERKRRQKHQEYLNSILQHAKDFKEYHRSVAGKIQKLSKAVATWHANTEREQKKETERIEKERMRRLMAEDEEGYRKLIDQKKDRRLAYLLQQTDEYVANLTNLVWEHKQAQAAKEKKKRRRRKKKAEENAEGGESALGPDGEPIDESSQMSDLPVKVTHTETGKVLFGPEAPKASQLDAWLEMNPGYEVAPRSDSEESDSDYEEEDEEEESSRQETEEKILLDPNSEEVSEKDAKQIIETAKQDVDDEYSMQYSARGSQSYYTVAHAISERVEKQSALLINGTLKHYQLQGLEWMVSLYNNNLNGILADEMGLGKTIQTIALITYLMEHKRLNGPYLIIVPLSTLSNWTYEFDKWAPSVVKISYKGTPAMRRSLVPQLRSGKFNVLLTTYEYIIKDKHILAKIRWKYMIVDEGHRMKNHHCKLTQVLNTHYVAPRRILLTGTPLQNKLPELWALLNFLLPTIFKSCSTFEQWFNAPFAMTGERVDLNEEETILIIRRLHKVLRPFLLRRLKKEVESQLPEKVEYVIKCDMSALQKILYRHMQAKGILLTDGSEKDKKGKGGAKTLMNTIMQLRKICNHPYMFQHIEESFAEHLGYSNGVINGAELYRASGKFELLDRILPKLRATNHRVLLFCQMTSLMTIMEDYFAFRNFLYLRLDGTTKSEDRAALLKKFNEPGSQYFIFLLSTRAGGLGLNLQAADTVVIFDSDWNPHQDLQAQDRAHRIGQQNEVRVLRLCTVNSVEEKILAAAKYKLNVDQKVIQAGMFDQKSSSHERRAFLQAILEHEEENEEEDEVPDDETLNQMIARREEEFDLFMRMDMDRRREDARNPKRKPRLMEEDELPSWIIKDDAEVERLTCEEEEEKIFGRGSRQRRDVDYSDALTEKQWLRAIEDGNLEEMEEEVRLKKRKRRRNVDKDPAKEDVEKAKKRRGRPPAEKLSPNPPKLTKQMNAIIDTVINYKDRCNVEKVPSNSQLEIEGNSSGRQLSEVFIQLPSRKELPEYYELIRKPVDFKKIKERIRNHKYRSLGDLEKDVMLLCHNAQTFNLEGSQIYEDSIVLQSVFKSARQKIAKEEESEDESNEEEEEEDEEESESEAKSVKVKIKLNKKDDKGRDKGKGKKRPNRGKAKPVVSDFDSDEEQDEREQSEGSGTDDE
Assay: SMARCA2 Cellular Degradation Assay (Western blot analysis on Jess platform)
Type: cell-based
Conditions: cellular degradation
Procedure: SMARCA2 Cellular Degradation Assay Western Blot Analysis for SMARCA2 Degradation […] Following normalization, the percentage of SMARCA2 remaining per sample relative to the vehicle control was calculated as follows: […]
Property: Dmax; scope: individual compounds

| compound | Dmax |
| --- | --- |
| O=C1CC[C@H](c2ccc(N3CCC(CN4CC[C@@H](NC(=O)C5(c6ccccc6)CCN(c6cnnc(-c7ccccc7O)c6)CC5)CC45CCC5)CC3)cc2)C(=O)N1 [Example 190] | 89.2% |
| O=C1CC[C@H](c2ccc(N3CCC(CCN4CCC(OCC(F)(F)F)(C(=O)NCC5(c6ccccc6)CCN(c6cnnc(-c7ccccc7O)c6)CC5)CC4)CC3)cc2)C(=O)N1 (racemic) [Example 105] | 92.2% |
| O=C1CCC(c2ccc(N3CCN(C(=O)CCCN4CCN(C(=O)C5(c6ccccc6)CCN(c6cnnc(-c7ccccc7O)c6)CC5)CC4)CC3)cc2)C(=O)N1 (racemic) [Example 22] | 30.5% |
| O=C1CC[C@H](c2ccc(N3CCC4(CC3)CC(N[C@H]3CC[C@H](NC(=O)C5(c6ccccc6)CCN(c6cnnc(-c7ccccc7O)c6)CC5)CC3)CO4)cc2)C(=O)N1 (mixture of isomers) [Example 178] | 76.2% |
| O=C1CC[C@@H](c2cccc(N3CCC(CN4CCC5(CC4)CN(C(=O)C4(c6ccccc6)CCN(c6cnnc(-c7ccccc7O)c6)CC4)C5)CC3)c2)C(=O)N1 (racemic) [Example 101] | 71% |
| O=C1CCC(c2ccc(N3CC[C@H](CCN4CC5(C4)CN(C(=O)C4(c6ccccc6)CCN(c6cnnc(-c7ccccc7O)c6)CC4)C5)C3)nc2)C(=O)N1 (mixture of isomers) [Example 181] | 72.3% |
| O=C1CC[C@@H](c2ccc(C3CCN(CC(=O)N4C[C@@H]5[C@H](C4)[C@H]5C(=O)NCC4(c5ccccc5)CCN(c5cnnc(-c6ccccc6O)c5)CC4)CC3)cc2)C(=O)N1 (racemic) [Example 73] | 79.8% |
